Exercise: state measured Neutralizing activity_IC50 for each of the binders provided.
Biological target: T1, human EL[331-459]-mouse EL-C2 tag (human/mouse chimera, UniProt Q9WVG5 21-500 (mouse entry))
T1 chain: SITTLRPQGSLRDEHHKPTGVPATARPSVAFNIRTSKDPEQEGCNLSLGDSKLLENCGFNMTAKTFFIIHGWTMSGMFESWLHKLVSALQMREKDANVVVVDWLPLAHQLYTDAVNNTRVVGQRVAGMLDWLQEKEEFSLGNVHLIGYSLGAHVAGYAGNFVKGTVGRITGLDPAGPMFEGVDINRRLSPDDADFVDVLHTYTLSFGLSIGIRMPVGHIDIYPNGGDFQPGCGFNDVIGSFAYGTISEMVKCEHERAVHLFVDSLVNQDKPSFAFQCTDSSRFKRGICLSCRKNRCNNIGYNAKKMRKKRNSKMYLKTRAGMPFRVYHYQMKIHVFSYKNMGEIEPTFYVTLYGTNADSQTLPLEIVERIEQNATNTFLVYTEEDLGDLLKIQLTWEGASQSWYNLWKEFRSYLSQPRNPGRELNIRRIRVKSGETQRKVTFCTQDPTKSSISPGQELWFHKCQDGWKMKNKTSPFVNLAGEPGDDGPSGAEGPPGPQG
Experiment: cell-based or functional assay
Number only, in nM; omit the unit.

Recorded Neutralizing activity_IC50 for 47B2 antibody (antibody, IgG2a, V domains shown) VH: QVALKESGPGILQPSQTLSLTCSFSGFSLSTSGMGVGWIRQPSGKGLEWLAHIWWHGNKYYSTGLKSRLTISKDTSNNQVFLKIASVDTADTATYYCARISAGYPLDYWGQGTSVTVSS VL: DIQMTQSPSSLSASLGGKVTITCKASQDINKYIVWYQHKPGKGPRLLIHYTSTLQPGFPSRFSGSGSGRDYSLSITNLEPEDIATYYCLQYDNLLWTFGGGTKLEIK , please?
5.3

Recorded Neutralizing activity_IC50 for 16A11 antibody (antibody, IgG1, V domains shown) VH: QVTLKESGPGILQPSQTLSLTCSFSGFSLSTSGMGVGWVRQPSGKGLEWLAHIWWNDYYYYKTALKSRLTISKDTSNNQVFLKIASVDTVDTATYYCARMAPGTPFPSWGQGTLVTVSA VL: DIQMTQSPSSLSASLGGKVTITCKASQDINRYIAWYQHKPGKGPRLLIHYTSTLQPGIPSRFSGSGSGRDYSFSISNLEPEDIATYYCLQYDILLWTFGGGTKLEIK , please?
6.1

Recorded Neutralizing activity_IC50 for 3B1 antibody (antibody, IgG1, V domains shown) VH: QVTLKESGPGILQPSQTLSLTCSFSGFSLSTSGVGVGWIRQPSGKGLEWLAHIWWNDNKYYNTALKSRLTISKDTSNNQVFLKIASVDTADTATYFCARSYDGYPFDYWGQGTLVTVSA VL: DIQMTQSPSSLSASLGGKVTITCKASQDINKYIVWYQHKPGKGPRLLIHHTSTLQPGIPSRFSESGSGRDYSFSISNLEPEDIASYYCLQYDTLLWTFGGGTKLEIR , please?
18
